- tested-on: DCLK1 (Homo sapiens, UniProt O15075)
- Construct: purchased Eurofins (Belgium), contract assay service
- Sequence (O15075 whole entry): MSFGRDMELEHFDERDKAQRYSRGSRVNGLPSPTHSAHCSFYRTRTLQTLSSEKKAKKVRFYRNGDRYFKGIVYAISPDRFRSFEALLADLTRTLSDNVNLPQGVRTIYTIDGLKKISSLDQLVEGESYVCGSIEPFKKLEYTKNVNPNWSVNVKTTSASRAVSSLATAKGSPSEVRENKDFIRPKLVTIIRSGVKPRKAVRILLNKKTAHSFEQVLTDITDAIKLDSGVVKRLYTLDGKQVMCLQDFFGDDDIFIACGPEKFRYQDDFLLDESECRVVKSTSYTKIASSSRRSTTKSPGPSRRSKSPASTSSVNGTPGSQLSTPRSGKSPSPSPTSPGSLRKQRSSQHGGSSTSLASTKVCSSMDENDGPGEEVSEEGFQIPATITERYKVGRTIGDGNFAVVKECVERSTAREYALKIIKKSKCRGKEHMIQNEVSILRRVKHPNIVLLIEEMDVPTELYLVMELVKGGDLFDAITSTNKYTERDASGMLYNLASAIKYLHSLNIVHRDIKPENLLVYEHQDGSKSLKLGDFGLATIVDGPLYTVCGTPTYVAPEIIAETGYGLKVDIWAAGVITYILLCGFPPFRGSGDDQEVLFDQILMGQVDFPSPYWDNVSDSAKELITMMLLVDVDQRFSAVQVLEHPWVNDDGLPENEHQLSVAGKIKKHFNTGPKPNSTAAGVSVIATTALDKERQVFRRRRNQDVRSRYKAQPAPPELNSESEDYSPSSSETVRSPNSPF
- assay-summary: In vitro DCLK1 kinase activity assay (Eurofins)
- Type: biochemical
recorded-endpoint: IC50 (nM)
Answer format: numeric, nM implied, no suffix.

Q. // query IC50 value for entry CCOc1cc(N2CCC(O)CC2)ccc1Nc1ncc2c(n1)N(C)c1ccccc1C(=O)N2C [XMD8-92, reference compound]
A. 161

###

- tested-on: LRRK2 (Homo sapiens)
- Construct: purchased Eurofins (Belgium), contract assay service
- assay-summary: In vitro LRRK2 kinase activity assay (Eurofins)
- Type: biochemical
- conditions: remaining kinase activity at 1 uM compound; 100% = no inhibition, 0% = complete inhibition
# maps each entry to its activity at 1 µM

[[record]]
molecule = "CCOc1cc(N2CCC(O)CC2)ccc1Nc1ncc2c(n1)N(C)c1ccccc1C(=O)N2CC"
result_value = "70%"

[[record]]
molecule = "COc1cc(N2CCC(OC)CC2)ccc1Nc1ncc2c(n1)N(C)c1ccccc1C(=O)N2C"
result_value = "10%"

[[record]]
molecule = "COc1cc(N2CCC(F)(F)CC2)ccc1Nc1ncc2c(n1)N(C)c1ccccc1C(=O)N2C"
result_value = "16%"

[[record]]
molecule = "CN1C(=O)c2ccccc2N(C)c2nc(NC3CCC(N4CCC(O)CC4)CC3)ncc21 (stereo not drawn)"
result_value = "99%"

[[record]]
molecule = "CCOc1cc(N2CCC(O)CC2)ccc1Nc1ncc2c(n1)N(C)c1cccc(C)c1C(=O)N2C"
result_value = "98%"

[[record]]
molecule = "CCOc1cc(N2CCS(=O)(=O)CC2)ccc1Nc1ncc2c(n1)N(C)c1ccccc1C(=O)N2C"
result_value = "19%"

[[record]]
molecule = "CCOc1cc(N2CCC(C)(F)CC2)ccc1Nc1ncc2c(n1)N(C)c1ccccc1C(=O)N2CC"
result_value = "81%"

[[record]]
molecule = "CCOc1cc(N2CCC(O)CC2)ccc1Nc1ncc2c(n1)N(C)c1ccc(C)cc1C(=O)N2C"
result_value = "93%"


Q. // query activity at 1 µM value for entry CCOc1cc(N2CCC(O)CC2)ccc1Nc1ncc2c(n1)N(C)c1cc(Cl)ccc1C(=O)N2C
A. 88%

Q. // query activity at 1 µM value for entry CCOc1cc(N2CCC(O)CC2)ccc1Nc1ncc2c(n1)N(C)c1cc(C)ccc1C(=O)N2C
A. 83%

Q. // query activity at 1 µM value for entry CCOc1cc(N2CCC(O)CC2)ccc1Nc1ncc2c(n1)N(C)c1ccccc1C(=O)N2C [XMD8-92, reference compound]
A. 18%

Q. // query activity at 1 µM value for entry COc1cc(NC(=O)CCCCCSC(C)=O)ccc1Nc1ncc2c(n1)N(C)c1ccccc1C(=O)N2C
A. 22%

Q. // query activity at 1 µM value for entry CCOc1cc(N2CCSCC2)ccc1Nc1ncc2c(n1)N(C)c1ccccc1C(=O)N2C
A. 33%

Q. // query activity at 1 µM value for entry CCOc1cc(N2CCC(O)CC2)ccc1Nc1ncc2c(n1)N(C)c1c(C)cccc1C(=O)N2C
A. 100%

Q. // query activity at 1 µM value for entry CCOc1cc(N2CCC(C)(O)CC2)ccc1Nc1ncc2c(n1)N(C)c1ccccc1C(=O)N2CC
A. 51%

###

- tested-on: DCLK1 (Homo sapiens, UniProt O15075)
- Construct: purchased Eurofins (Belgium), contract assay service
- assay-summary: In vitro DCLK1 kinase activity assay (Eurofins)
- Type: biochemical
- conditions: ratio of remaining activities at 1 uM
- From the text: Eurofins (Belgium) conducted in vitro DCLK1 and LRRK2 kinase activity assays. Compounds were sent as dry powders to Eurofins.
# maps each entry to its Selectivity (DCLK1 activity/LRRK2 activity)
The answer should be a number; do not append a unit.

Q. // query Selectivity (DCLK1 activity/LRRK2 activity) value for entry CCOc1cc(N2CCC(O)CC2)ccc1Nc1ncc2c(n1)N(C)c1cccc(C)c1C(=O)N2C
A. 0.98

Q. // query Selectivity (DCLK1 activity/LRRK2 activity) value for entry CCOc1cc(N2CCC(C)(O)CC2)ccc1Nc1ncc2c(n1)N(C)c1ccccc1C(=O)N2CC
A. 0.51

Q. // query Selectivity (DCLK1 activity/LRRK2 activity) value for entry CCOc1cc(N2CCC(O)CC2)ccc1Nc1ncc2c(n1)N(C)c1ccc(Cl)cc1C(=O)N2C
A. 0.98

Q. // query Selectivity (DCLK1 activity/LRRK2 activity) value for entry CCOc1cc(N2CCS(=O)(=O)CC2)ccc1Nc1ncc2c(n1)N(C)c1ccccc1C(=O)N2C
A. 0.47

Q. // query Selectivity (DCLK1 activity/LRRK2 activity) value for entry COc1cc(N2CCC(C)(O)CC2)ccc1Nc1ncc2c(n1)N(C)c1ccccc1C(=O)N2C
A. 0.44

Q. // query Selectivity (DCLK1 activity/LRRK2 activity) value for entry CCOc1cc(N2CCC(O)CC2)ccc1Nc1ncc2c(n1)N(C)c1ccc(F)cc1C(=O)N2C
A. 0.37

Q. // query Selectivity (DCLK1 activity/LRRK2 activity) value for entry CN1C(=O)c2ccccc2N(C)c2nc(NC3CCC(N4CCC(O)CC4)CC3)ncc21 (stereo not shown)
A. 0.57

Q. // query Selectivity (DCLK1 activity/LRRK2 activity) value for entry COc1cc(N2CCC(OC)CC2)ccc1Nc1ncc2c(n1)N(C)c1ccccc1C(=O)N2C
A. 0.50

Q. // query Selectivity (DCLK1 activity/LRRK2 activity) value for entry CCOc1cc(N2CC[S+]([O-])CC2)ccc1Nc1ncc2c(n1)N(C)c1ccccc1C(=O)N2C
A. 0.57

Q. // query Selectivity (DCLK1 activity/LRRK2 activity) value for entry CCOc1cc(N2CCC(O)CC2)ccc1Nc1ncc2c(n1)N(C)c1c(Cl)cccc1C(=O)N2C
A. 3.13

###

- tested-on: LRRK2 (Homo sapiens, UniProt Q5S007)
- Sequence (Q5S007 whole entry): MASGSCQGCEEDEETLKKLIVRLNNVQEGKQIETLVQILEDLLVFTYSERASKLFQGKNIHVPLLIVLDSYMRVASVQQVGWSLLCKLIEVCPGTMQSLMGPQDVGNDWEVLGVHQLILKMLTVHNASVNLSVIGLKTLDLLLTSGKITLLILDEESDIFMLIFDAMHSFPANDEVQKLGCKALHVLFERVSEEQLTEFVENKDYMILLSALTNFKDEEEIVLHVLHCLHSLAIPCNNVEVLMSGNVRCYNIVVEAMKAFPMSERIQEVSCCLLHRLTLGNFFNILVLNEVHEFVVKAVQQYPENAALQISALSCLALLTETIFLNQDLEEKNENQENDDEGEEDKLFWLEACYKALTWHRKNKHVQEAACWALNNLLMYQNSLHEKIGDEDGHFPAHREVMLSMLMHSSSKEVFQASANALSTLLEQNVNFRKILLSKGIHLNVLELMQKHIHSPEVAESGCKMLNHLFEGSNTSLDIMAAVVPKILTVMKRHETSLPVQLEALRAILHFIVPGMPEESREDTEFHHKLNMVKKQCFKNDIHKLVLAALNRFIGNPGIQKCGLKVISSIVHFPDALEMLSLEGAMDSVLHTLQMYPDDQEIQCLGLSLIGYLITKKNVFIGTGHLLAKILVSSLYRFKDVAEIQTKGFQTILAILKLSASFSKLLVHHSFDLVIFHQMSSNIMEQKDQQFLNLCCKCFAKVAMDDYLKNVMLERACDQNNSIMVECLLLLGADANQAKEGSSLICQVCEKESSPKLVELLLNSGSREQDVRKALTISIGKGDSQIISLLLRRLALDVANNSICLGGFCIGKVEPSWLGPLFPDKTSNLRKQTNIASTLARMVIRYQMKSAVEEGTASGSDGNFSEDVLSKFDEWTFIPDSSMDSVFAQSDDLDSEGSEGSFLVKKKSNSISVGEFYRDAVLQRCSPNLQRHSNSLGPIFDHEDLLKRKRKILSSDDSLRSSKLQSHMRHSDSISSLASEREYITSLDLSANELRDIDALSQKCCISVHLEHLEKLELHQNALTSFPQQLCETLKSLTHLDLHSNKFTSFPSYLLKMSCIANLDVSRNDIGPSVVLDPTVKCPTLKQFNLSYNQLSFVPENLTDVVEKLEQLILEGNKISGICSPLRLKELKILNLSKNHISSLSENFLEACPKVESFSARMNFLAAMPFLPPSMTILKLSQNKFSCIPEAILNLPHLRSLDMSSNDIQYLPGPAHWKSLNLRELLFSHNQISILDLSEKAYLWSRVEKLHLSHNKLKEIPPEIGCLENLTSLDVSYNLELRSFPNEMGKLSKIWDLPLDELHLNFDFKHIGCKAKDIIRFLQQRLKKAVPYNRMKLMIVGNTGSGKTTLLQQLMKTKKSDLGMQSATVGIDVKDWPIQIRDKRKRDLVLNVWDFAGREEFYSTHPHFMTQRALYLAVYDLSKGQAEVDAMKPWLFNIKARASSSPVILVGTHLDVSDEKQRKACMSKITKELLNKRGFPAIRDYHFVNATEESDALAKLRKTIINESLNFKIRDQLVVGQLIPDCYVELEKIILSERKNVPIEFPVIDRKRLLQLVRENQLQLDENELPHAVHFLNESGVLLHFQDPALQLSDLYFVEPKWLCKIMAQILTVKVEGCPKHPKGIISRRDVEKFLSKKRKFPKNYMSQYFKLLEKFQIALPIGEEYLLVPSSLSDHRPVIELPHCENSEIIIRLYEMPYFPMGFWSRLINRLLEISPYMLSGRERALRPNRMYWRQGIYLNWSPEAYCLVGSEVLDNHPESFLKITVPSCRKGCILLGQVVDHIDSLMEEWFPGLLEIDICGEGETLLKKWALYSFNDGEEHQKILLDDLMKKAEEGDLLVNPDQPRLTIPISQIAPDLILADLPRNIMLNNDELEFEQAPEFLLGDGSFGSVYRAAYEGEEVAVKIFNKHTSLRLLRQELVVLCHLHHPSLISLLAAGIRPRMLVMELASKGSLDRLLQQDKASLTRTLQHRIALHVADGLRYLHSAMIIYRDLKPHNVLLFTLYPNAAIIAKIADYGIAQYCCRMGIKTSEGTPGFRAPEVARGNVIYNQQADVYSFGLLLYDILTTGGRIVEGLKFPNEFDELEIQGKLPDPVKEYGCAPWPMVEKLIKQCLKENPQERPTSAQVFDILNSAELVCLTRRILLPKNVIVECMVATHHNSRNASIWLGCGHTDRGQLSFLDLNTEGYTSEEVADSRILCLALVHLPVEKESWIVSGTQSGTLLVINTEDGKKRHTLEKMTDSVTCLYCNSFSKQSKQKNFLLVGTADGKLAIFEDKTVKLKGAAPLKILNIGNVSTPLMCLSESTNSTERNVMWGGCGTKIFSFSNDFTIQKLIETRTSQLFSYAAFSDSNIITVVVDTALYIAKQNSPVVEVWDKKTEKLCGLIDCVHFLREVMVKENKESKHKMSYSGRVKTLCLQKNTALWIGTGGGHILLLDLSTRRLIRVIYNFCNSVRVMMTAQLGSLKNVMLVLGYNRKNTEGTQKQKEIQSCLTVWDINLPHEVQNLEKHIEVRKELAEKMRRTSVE
// NB: equality with 0.2 µM counts as Not fulfilled; only IC50 strictly below is Fulfilled

Record excerpt, results attached:
[[record]]
compound = "CCOc1cc(N2CCC(O)CC2)ccc1Nc1ncc2c(n1)N(C)c1ccccc1C(=O)N2CC"
qualitative_label = "Not fulfilled"

[[record]]
compound = "COc1cc(NC(=O)CC(=O)O)ccc1Nc1ncc2c(n1)N(C)c1ccccc1C(=O)N2C [Compound D1]"
qualitative_label = "Not fulfilled"

[[record]]
compound = "COc1cc(N2CCC(F)(F)CC2)ccc1Nc1ncc2c(n1)N(C)c1ccccc1C(=O)N2C"
qualitative_label = "Fulfilled"

[[record]]
compound = "CCOc1cc(N2CCC(C(=O)O)CC2)ccc1Nc1ncc2c(n1)N(C)c1ccccc1C(=O)N2C"
qualitative_label = "Not fulfilled"


Q. Is IC50 of CCOc1cc(N2CC[S+]([O-])CC2)ccc1Nc1ncc2c(n1)N(C)c1ccccc1C(=O)N2C strictly below 0.2 µM?
A. Not fulfilled

Q. Is IC50 of COc1cc(NC(=O)CCC(=O)O)ccc1Nc1ncc2c(n1)N(C)c1ccccc1C(=O)N2C [Compound D2] strictly below 0.2 µM?
A. Not fulfilled

Q. Is IC50 of COc1cc(N2CCC(C)(O)CC2)ccc1Nc1ncc2c(n1)N(C)c1ccccc1C(=O)N2C strictly below 0.2 µM?
A. Fulfilled

Q. Is IC50 of CCOc1cc(N2CCSCC2)ccc1Nc1ncc2c(n1)N(C)c1ccccc1C(=O)N2C strictly below 0.2 µM?
A. Not fulfilled

Q. Is IC50 of CCOc1cc(N2CCC(O)CC2)ccc1Nc1ncc2c(n1)N(C)c1ccccc1C(=O)N2C [XMD8-92, reference compound] strictly below 0.2 µM?
A. Not fulfilled

###

recorded-endpoint: melting point

Please review the following examples before continuing.
[[record]]
smiles_str = "CCOc1cc(N2CCC(O)CC2)ccc1Nc1ncc2c(n1)N(C)c1ccc(C(F)(F)F)cc1C(=O)N2C"
result_value = "119 to 120 °C"

[[record]]
smiles_str = "CN1C(=O)c2ccccc2N(C)c2nc(Nc3ccc(N4CCC(O)CC4)nc3)ncc21"
result_value = "189 to 190 °C"

[[record]]
smiles_str = "CCOc1cc(N2CCC(C)(O)CC2)ccc1Nc1ncc2c(n1)N(C)c1ccccc1C(=O)N2CC"
result_value = "178 to 179 °C"

[[record]]
smiles_str = "CCOc1cc(N2CCC(O)CC2)ccc1Nc1ncc2c(n1)N(C)c1ccc(F)cc1C(=O)N2C"
result_value = "166 to 167 °C"

[[record]]
smiles_str = "CCOc1cc(N2CC[S+]([O-])CC2)ccc1Nc1ncc2c(n1)N(C)c1ccccc1C(=O)N2C"
result_value = "163 to 164 °C"


Q. // query melting point value for entry CCOc1cc(N2CCC(C(=O)O)CC2)ccc1Nc1ncc2c(n1)N(C)c1ccccc1C(=O)N2C
A. 159 to 160 °C

Q. // query melting point value for entry COc1cc(NC(=O)CCCCCSC(C)=O)ccc1Nc1ncc2c(n1)N(C)c1ccccc1C(=O)N2C
A. 159 to 160 °C

Q. // query melting point value for entry CCOc1cc(N2CCC(O)CC2)ccc1Nc1ncc2c(n1)N(C)c1cc(Cl)ccc1C(=O)N2C
A. 162 to 163 °C
